Molecular target: Delta-type opioid receptor (Homo sapiens, UniProt P41143)
Sequence (P41143 whole entry): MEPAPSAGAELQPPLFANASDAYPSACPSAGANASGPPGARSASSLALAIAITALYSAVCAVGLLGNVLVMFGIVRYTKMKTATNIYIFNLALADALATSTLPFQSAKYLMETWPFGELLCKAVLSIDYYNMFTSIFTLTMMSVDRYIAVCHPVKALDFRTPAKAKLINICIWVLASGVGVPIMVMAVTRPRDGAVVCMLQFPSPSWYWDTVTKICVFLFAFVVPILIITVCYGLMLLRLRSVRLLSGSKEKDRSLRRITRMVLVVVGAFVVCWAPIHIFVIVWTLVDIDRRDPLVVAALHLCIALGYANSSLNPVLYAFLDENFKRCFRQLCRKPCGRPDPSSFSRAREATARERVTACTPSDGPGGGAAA
Assay: Displacement of [3H]deltorphine 2 from human delta opioid receptor expressed in CHOK1 cells
Type: cell-based, CHO-K1
pKi: −log10 of the molar value.

STRUCTURE_SMILES_STRING | pKi
C=CCN1C[C@H]2C(c3ccccc3)=CC[C@@H]1CN2Cc1ccc(C(=O)N(CC)CC)cc1 | 6.13

---

Target: Nociceptin receptor (Homo sapiens)
Test: Displacement of [3H]nociceptin from human ORL1 receptor expressed in HEK293 cells at 10 uM
Format: cell-based
# maps each entry to its inhibition

STRUCTURE_SMILES_STRING | COMPARATOR | inhibition, %
C=CCN1C[C@@H]2C(c3ccccc3)=CC[C@H]1CN2Cc1ccc(C(=O)N(CC)CC)cc1 | = | 9
C=CCN1C[C@@H]2[C@@H](c3ccccc3)CC[C@H]1CN2Cc1ccc(C(=O)N(CC)CC)cc1 | = | 14
C=CCN1C[C@H]2C(c3ccccc3)=CC[C@@H]1CN2Cc1ccc(C(=O)N(CC)CC)cc1 | < | 10
C=CCN1C[C@@H]2[C@H](c3ccccc3)CC[C@H]1CN2Cc1ccc(C(=O)N(CC)CC)cc1 | = | 7
CCCN1C[C@@H]2C(c3ccccc3)=CC[C@H]1CN2Cc1ccc(C(=O)N(CC)CC)cc1 | = | 45
CCCN1C[C@@H]2[C@H](c3ccccc3)CC[C@H]1CN2Cc1ccc(C(=O)N(CC)CC)cc1 | = | 1
CCCN1C[C@@H]2[C@@H](c3ccccc3)CC[C@H]1CN2Cc1ccc(C(=O)N(CC)CC)cc1 | = | 3

---

Recorded measurements of inhibition, one per entry
Target: Delta-type opioid receptor (Homo sapiens, UniProt P41143)
Test: Displacement of [3H]deltorphine 2 from human delta opioid receptor expressed in CHOK1 cells at 10 uM
Format: cell-based
Settings: CHO-K1
PARAMETER_MEASURED: inhibition (%)

STRUCTURE_SMILES_STRING | PARAMETER_MEASURED | RECORDED_MEASUREMENT
C=CCN1C[C@@H]2C(c3ccccc3)=CC[C@H]1CN2Cc1ccc(C(=O)N(CC)CC)cc1 | inhibition | 14
CCCN1C[C@@H]2[C@H](c3ccccc3)CC[C@H]1CN2Cc1ccc(C(=O)N(CC)CC)cc1 | inhibition | 4
C=CCN1C[C@@H]2[C@H](c3ccccc3)CC[C@H]1CN2Cc1ccc(C(=O)N(CC)CC)cc1 | inhibition | 6
C=CCN1C[C@@H]2[C@@H](c3ccccc3)CC[C@H]1CN2Cc1ccc(C(=O)N(CC)CC)cc1 | inhibition | 34
C=CCN1C[C@H]2C(c3ccccc3)=CC[C@@H]1CN2Cc1ccc(C(=O)N(CC)CC)cc1 | inhibition | 87
CCCN1C[C@@H]2C(c3ccccc3)=CC[C@H]1CN2Cc1ccc(C(=O)N(CC)CC)cc1 | inhibition | 20
CCCN1C[C@@H]2[C@@H](c3ccccc3)CC[C@H]1CN2Cc1ccc(C(=O)N(CC)CC)cc1 | inhibition | 4

---

# pKi annotations
Target: UniProtKB P41145
Sequence (P41145 whole entry): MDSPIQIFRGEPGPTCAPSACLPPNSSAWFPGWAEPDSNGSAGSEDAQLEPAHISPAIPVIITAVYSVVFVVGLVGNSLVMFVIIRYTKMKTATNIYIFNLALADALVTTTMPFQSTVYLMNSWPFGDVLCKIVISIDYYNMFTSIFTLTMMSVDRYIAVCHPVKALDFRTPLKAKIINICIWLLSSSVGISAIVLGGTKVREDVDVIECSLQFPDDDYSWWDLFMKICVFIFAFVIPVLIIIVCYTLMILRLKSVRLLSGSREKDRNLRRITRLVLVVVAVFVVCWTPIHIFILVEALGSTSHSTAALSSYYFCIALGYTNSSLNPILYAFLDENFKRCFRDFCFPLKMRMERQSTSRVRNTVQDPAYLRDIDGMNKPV
pKi: −log10 of the molar value.
PARAMETER_MEASURED: pKi

STRUCTURE_SMILES_STRING | SYSTEM_TESTED | PARAMETER_MEASURED | RECORDED_MEASUREMENT
C=CCN1C[C@@H]2[C@H](c3ccccc3)CC[C@H]1CN2Cc1ccc(C(=O)N(CC)CC)cc1 | UniProtKB P41145 | pKi | 5.77
C=CCN1C[C@@H]2C(c3ccccc3)=CC[C@H]1CN2Cc1ccc(C(=O)N(CC)CC)cc1 | UniProtKB P41145 | pKi | 6.05
C=CCN1C[C@@H]2[C@@H](c3ccccc3)CC[C@H]1CN2Cc1ccc(C(=O)N(CC)CC)cc1 | UniProtKB P41145 | pKi | 5.96
CCCN1C[C@@H]2[C@H](c3ccccc3)CC[C@H]1CN2Cc1ccc(C(=O)N(CC)CC)cc1 | UniProtKB P41145 | pKi | 5.62
